Hello, the source for this data is ChEMBL document CHEMBL5608163, in case you need it.

For each entry below, report its MIC value.
# Test system: Staphylococcus aureus
# Assay Protocol: Antibacterial activity against Staphylococcus aureus ATCC 25923 assessed as reduction in bacterial cell growth measured for 18 hrs by Mueller-Hinton broth based two-fold serial dilution method
# Assay type: functional
Square brackets hold non-standard residues; d marks the D form. Peptide text beside a SMILES is read from it. * marks the point of attachment. Pentadecanoyl = CCCCCCCCCCCCCCC(=O)*; NMeR = CN[C@@H](CCCNC(=N)N)C(=O)O; Undecanoyl = CCCCCCCCCCC(=O)*; NMeK = CN[C@@H](CCCCN)C(=O)O; Nonanoyl = CCCCCCCCC(=O)*
Answers are plain numbers, in µM.

Observe how each entry below is paired with its result.
>  <Compound>
CCCCCCCCCCC(=O)NCC(=O)N[C@@H](CC(C)C)C(=O)N[C@@H](CC(C)C)C(=O)N[C@@H](CCCCN)C(=O)N(C)[C@@H](CCCNC(=N)N)C(=O)N[C@H](C(=O)N(C)[C@@H](CCCCN)C(=O)N[C@H](C(=O)N[C@@H](CC(C)C)C(=O)N[C@@H](CC(C)C)C(N)=O)[C@@H](C)O)[C@@H](C)CC (Undecanoyl-GLLK[NMeR]I[NMeK]TLL-NH2)

>  <Target System>
Staphylococcus aureus

>  <MIC (µM)>
32

$$$$
>  <Compound>
CCCCCCCCC(=O)NCC(=O)N[C@@H](CC(C)C)C(=O)N[C@@H](CC(C)C)C(=O)N[C@@H](CCCCN)C(=O)N[C@@H](CCCNC(=N)N)C(=O)N[C@H](C(=O)N[C@@H](CCCCN)C(=O)N[C@H](C(=O)N[C@@H](CC(C)C)C(=O)N[C@@H](CC(C)C)C(N)=O)[C@@H](C)O)[C@@H](C)CC (Nonanoyl-GLLKRIKTLL-NH2)

>  <Target System>
Staphylococcus aureus

>  <MIC (µM)>
8

$$$$

Kindly review the next compound as well.
Simply: CCCCCCCCCCCCCCC(=O)NCC(=O)N[C@@H](CC(C)C)C(=O)N[C@@H](CC(C)C)C(=O)N[C@@H](CCCCN)C(=O)N[C@@H](CCCNC(=N)N)C(=O)N[C@H](C(=O)N[C@@H](CCCCN)C(=O)N[C@H](C(=O)N[C@@H](CC(C)C)C(=O)N[C@@H](CC(C)C)C(N)=O)[C@@H](C)O)[C@@H](C)CC (Pentadecanoyl-GLLKRIKTLL-NH2) , Staphylococcus aureus, MIC = 16

---

# System: Klebsiella pneumoniae
# Assay Protocol: Antimicrobial activity against Klebsiella pneumoniae ATCC 700603 assessed as reduction in microbial growth incubated for 18 hrs by Mueller-Hinton Broth based microdilution assay
# Format: functional
Square brackets hold non-standard residues; d marks the D form. Peptide text beside a SMILES is read from it. NMeL = CN[C@@H](CC(C)C)C(=O)O; NMeK = CN[C@@H](CCCCN)C(=O)O
Kindly state MIC for each of the entries shown.

Use these answered entries as a reference point.
>  <Compound>
CC[C@H](C)[C@H](NC(=O)[C@H](CCCNC(=N)N)NC(=O)[C@H](CCCCN)N(C)C(=O)[C@H](CC(C)C)NC(=O)[C@H](CC(C)C)NC(=O)CN)C(=O)N(C)[C@@H](CCCCN)C(=O)N[C@H](C(=O)N[C@@H](CC(C)C)C(=O)N[C@@H](CC(C)C)C(N)=O)[C@@H](C)O (H-GLL[NMeK]RI[NMeK]TLL-NH2)

>  <MIC>
> 128 µM

$$$$
>  <Compound>
CC[C@H](C)[C@H](NC(=O)[C@H](CCCNC(=N)N)NC(=O)[C@H](CCCCN)NC(=O)[C@H](CC(C)C)NC(=O)[C@H](CC(C)C)N(C)C(=O)CN)C(=O)N[C@@H](CCCCN)C(=O)N[C@H](C(=O)N[C@@H](CC(C)C)C(=O)N[C@@H](CC(C)C)C(N)=O)[C@@H](C)O (H-G[NMeL]LKRIKTLL-NH2)

>  <MIC>
> 128 µM

$$$$

Value of measured MIC for the entry CC[C@H](C)[C@H](NC(=O)[C@H](CCCNC(=N)N)NC(=O)[C@H](CCCCN)NC(=O)[C@H](CC(C)C)NC(=O)[C@H](CC(C)C)NC(=O)CN)C(=O)N(C)[C@@H](CCCCN)C(=O)N[C@H](C(=O)N[C@@H](CC(C)C)C(=O)N[C@@H](CC(C)C)C(N)=O)[C@@H](C)O (H-GLLKRI[NMeK]TLL-NH2) : > 128 µM

---

# System: Pseudomonas aeruginosa
# Assay Protocol: Antimicrobial activity against Pseudomonas aeruginosa ATCC 27853 assessed as reduction in microbial growth incubated for 18 hrs by Mueller-Hinton Broth based microdilution assay
# Format: functional
Square brackets hold non-standard residues; d marks the D form. Peptide text beside a SMILES is read from it. NMeR = CN[C@@H](CCCNC(=N)N)C(=O)O; NMeL = CN[C@@H](CC(C)C)C(=O)O; NMeK = CN[C@@H](CCCCN)C(=O)O
Measure Name: MIC (µM)
Give bare numbers, in µM.

Take a look at these entries with their results.
>  <Compound>
CC[C@H](C)[C@H](NC(=O)[C@H](CCCNC(=N)N)NC(=O)[C@H](CCCCN)N(C)C(=O)[C@H](CC(C)C)NC(=O)[C@H](CC(C)C)NC(=O)CN)C(=O)N[C@@H](CCCCN)C(=O)N[C@H](C(=O)N[C@@H](CC(C)C)C(=O)N[C@@H](CC(C)C)C(N)=O)[C@@H](C)O (H-GLL[NMeK]RIKTLL-NH2)

>  <Unit Label>
µM

>  <MIC>
64

$$$$
>  <Compound>
CC[C@H](C)[C@H](NC(=O)[C@H](CCCNC(=N)N)NC(=O)[C@H](CCCCN)NC(=O)[C@H](CC(C)C)N(C)C(=O)[C@H](CC(C)C)N(C)C(=O)CN)C(=O)N[C@@H](CCCCN)C(=O)N[C@H](C(=O)N(C)[C@@H](CC(C)C)C(=O)N(C)[C@@H](CC(C)C)C(N)=O)[C@@H](C)O (H-G[NMeL][NMeL]KRIKT[NMeL][NMeL]-NH2)

>  <Unit Label>
µM

>  <MIC>
128

$$$$
>  <Compound>
CC[C@H](C)[C@H](NC(=O)[C@H](CCCNC(=N)N)NC(=O)[C@H](CCCCN)NC(=O)[C@H](CC(C)C)NC(=O)[C@H](CC(C)C)NC(=O)CN)C(=O)N(C)[C@@H](CCCCN)C(=O)N[C@H](C(=O)N[C@@H](CC(C)C)C(=O)N[C@@H](CC(C)C)C(N)=O)[C@@H](C)O (H-GLLKRI[NMeK]TLL-NH2)

>  <Unit Label>
µM

>  <MIC>
128

$$$$
>  <Compound>
CC[C@H](C)[C@H](NC(=O)[C@H](CCCNC(=N)N)NC(=O)[C@H](CCCCN)N(C)C(=O)[C@H](CC(C)C)NC(=O)[C@H](CC(C)C)NC(=O)CN)C(=O)N(C)[C@@H](CCCCN)C(=O)N[C@H](C(=O)N[C@@H](CC(C)C)C(=O)N[C@@H](CC(C)C)C(N)=O)[C@@H](C)O (H-GLL[NMeK]RI[NMeK]TLL-NH2)

>  <Unit Label>
µM

>  <MIC>
128

$$$$
>  <Compound>
CC[C@H](C)[C@H](NC(=O)[C@H](CCCNC(=N)N)N(C)C(=O)[C@H](CCCCN)NC(=O)[C@H](CC(C)C)NC(=O)[C@H](CC(C)C)NC(=O)CN)C(=O)N[C@@H](CCCCN)C(=O)N[C@H](C(=O)N[C@@H](CC(C)C)C(=O)N[C@@H](CC(C)C)C(N)=O)[C@@H](C)O (H-GLLK[NMeR]IKTLL-NH2)

>  <Unit Label>
µM

>  <MIC>
128

$$$$

Give MIC for each listed item.
1. CC[C@H](C)[C@H](NC(=O)[C@H](CCCNC(=N)N)NC(=O)[C@H](CCCCN)NC(=O)[C@H](CC(C)C)N(C)C(=O)[C@H](CC(C)C)NC(=O)CN)C(=O)N[C@@H](CCCCN)C(=O)N[C@H](C(=O)N[C@@H](CC(C)C)C(=O)N[C@@H](CC(C)C)C(N)=O)[C@@H](C)O (H-GL[NMeL]KRIKTLL-NH2)
2. CC[C@H](C)[C@H](NC(=O)[C@H](CCCNC(=N)N)NC(=O)[C@H](CCCCN)NC(=O)[C@H](CC(C)C)NC(=O)[C@H](CC(C)C)N(C)C(=O)CN)C(=O)N[C@@H](CCCCN)C(=O)N[C@H](C(=O)N[C@@H](CC(C)C)C(=O)N(C)[C@@H](CC(C)C)C(N)=O)[C@@H](C)O (H-G[NMeL]LKRIKTL[NMeL]-NH2)
3. CC[C@H](C)[C@H](NC(=O)[C@H](CCCNC(=N)N)NC(=O)[C@H](CCCCN)NC(=O)[C@H](CC(C)C)NC(=O)[C@H](CC(C)C)NC(=O)CN)C(=O)N[C@@H](CCCCN)C(=O)N[C@H](C(=O)N(C)[C@@H](CC(C)C)C(=O)N[C@@H](CC(C)C)C(N)=O)[C@@H](C)O (H-GLLKRIKT[NMeL]L-NH2)
4. CC[C@H](C)[C@H](NC(=O)[C@H](CCCNC(=N)N)NC(=O)[C@H](CCCCN)NC(=O)[C@H](CC(C)C)NC(=O)[C@H](CC(C)C)NC(=O)CN)C(=O)N[C@@H](CCCCN)C(=O)N[C@H](C(=O)N[C@@H](CC(C)C)C(=O)N(C)[C@@H](CC(C)C)C(N)=O)[C@@H](C)O (H-GLLKRIKTL[NMeL]-NH2)
5. CC[C@H](C)[C@H](NC(=O)[C@H](CCCNC(=N)N)NC(=O)[C@H](CCCCN)NC(=O)[C@H](CC(C)C)NC(=O)[C@H](CC(C)C)N(C)C(=O)CN)C(=O)N[C@@H](CCCCN)C(=O)N[C@H](C(=O)N[C@@H](CC(C)C)C(=O)N[C@@H](CC(C)C)C(N)=O)[C@@H](C)O (H-G[NMeL]LKRIKTLL-NH2)

64
128
28
32
32
